FYI, the data here is from patent US20240140953A1.

assay-target: menin (Homo sapiens (Human))
assay-endpoint: Kd (nM)
Give bare numbers, in nM.

*Q* State the recorded Kd for this entry: O=C(Nc1ccc(-c2cc3c(N4CCOCC4)ncnc3[nH]2)cc1)Nc1cc(-c2ccncc2)no1
*A* 250

====

assay-target: Menin-MLL (Homo sapiens (Human), UniProt O00255)
Sequence (O00255 whole entry): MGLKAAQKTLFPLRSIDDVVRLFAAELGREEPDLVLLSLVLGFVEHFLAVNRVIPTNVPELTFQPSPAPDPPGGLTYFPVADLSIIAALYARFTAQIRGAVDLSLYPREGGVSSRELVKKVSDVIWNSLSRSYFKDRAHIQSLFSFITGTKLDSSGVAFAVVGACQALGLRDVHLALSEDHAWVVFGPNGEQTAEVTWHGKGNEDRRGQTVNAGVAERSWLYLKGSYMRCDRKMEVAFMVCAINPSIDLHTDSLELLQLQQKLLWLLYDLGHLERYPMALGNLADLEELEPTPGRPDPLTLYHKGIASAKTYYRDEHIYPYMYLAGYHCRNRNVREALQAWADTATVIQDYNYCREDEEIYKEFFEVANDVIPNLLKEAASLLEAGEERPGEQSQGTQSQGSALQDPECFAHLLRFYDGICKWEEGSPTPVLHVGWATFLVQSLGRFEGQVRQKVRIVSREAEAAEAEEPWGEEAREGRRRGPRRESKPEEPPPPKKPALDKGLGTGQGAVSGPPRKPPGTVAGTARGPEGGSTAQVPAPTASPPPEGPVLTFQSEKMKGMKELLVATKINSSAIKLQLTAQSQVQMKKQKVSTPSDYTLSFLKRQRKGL
measurement-description: Menin-MLL in vitro inhibitory activity (Example 101a, Table 2)
assay-endpoint: IC50 (nM)
One number for each entry, in nM.

*Q* Can you look up IC50 on Menin-MLL (Homo sapiens (Human), UniProt O00255) for O=C(Nc1ccc(-c2cc3c(N4CCOCC4)ncnc3[nH]2)cc1)Nc1cc(-c2cccnc2)no1 ?
*A* 240
